molecular target: Histamine H3 receptor (Rattus norvegicus); test: In vitro binding affinity was measured against Histamine H3 receptor on rat cerebral cortex.; type: tissue-based
Sequence (Q9QYN8 whole entry): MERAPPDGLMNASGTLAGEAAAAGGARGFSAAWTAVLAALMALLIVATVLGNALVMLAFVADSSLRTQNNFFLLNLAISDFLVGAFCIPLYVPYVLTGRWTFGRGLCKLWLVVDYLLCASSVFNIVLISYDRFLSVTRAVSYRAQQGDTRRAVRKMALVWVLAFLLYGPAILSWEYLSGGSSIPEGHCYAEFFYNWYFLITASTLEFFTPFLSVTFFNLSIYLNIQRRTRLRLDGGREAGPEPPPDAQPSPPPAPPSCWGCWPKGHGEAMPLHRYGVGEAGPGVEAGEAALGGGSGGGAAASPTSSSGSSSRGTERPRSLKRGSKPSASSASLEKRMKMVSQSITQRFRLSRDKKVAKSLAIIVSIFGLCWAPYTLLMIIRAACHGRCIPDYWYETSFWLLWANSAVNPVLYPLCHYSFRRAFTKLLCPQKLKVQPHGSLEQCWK

# Mol smiles, Output unit, Ki
rows = [
    ("N[C@@H]1C[C@H]1c1cnc[nH]1", "µM", 0.0251),
    ("N[C@H]1C[C@@H]1c1c[nH]cn1", "µM", 0.00174),
]
